# CONDITION CONTEXT: in ethyl acetate, 285.65 K
MEASURE: solubility (mole fraction)
Form: value (number only, do not type unit).

Prompt: Give solubility (mole fraction) for CCOC(=O)Cc1c(C(=O)OCC)sc(N(CC(=O)OCC)CC(=O)OCC)c1C#N
Response: 0.0259

###

# CONDITION CONTEXT: in n-propanol, 300.65 K
MEASURE: solubility (mole fraction)
Form field (numeric): enter value without unit.

Prompt: Input CCOC(=O)Cc1c(C(=O)OCC)sc(N(CC(=O)OCC)CC(=O)OCC)c1C#N , output reported solubility (mole fraction).
Response: 0.00266

###

# CONDITION CONTEXT: in ethyl acetate, 303.15 K
MEASURE: solubility (mole fraction)
Answer using only a numeral; do not append any unit.

Prompt: For CCOC(=O)Cc1c(C(=O)OCC)sc(N(CC(=O)OCC)CC(=O)OCC)c1C#N , write its solubility (mole fraction).
Response: 0.066

###

# CONDITION CONTEXT: in isopropanol, 315.65 K
MEASURE: solubility (mole fraction)
Just the number, please, no unit after it.

Prompt: Please give the documented solubility (mole fraction) of CCOC(=O)Cc1c(C(=O)OCC)sc(N(CC(=O)OCC)CC(=O)OCC)c1C#N
Response: 0.00345

###

# CONDITION CONTEXT: in toluene, 290.65 K
MEASURE: solubility (mole fraction)

Prompt: Tell us which solubility (mole fraction) value is on record for CCOC(=O)Cc1c(C(=O)OCC)sc(N(CC(=O)OCC)CC(=O)OCC)c1C#N
Response: 0.0187

###

# CONDITION CONTEXT: in n-butanol, 305.65 K
MEASURE: solubility (mole fraction)
Reply briefly: the number, and no unit.

Prompt: Look up and state reported solubility (mole fraction) for CCOC(=O)Cc1c(C(=O)OCC)sc(N(CC(=O)OCC)CC(=O)OCC)c1C#N
Response: 0.00259

###

# CONDITION CONTEXT: in methanol, 290.65 K
MEASURE: solubility (mole fraction)
Give your answer as a number; write no unit.

Prompt: Look up and state reported solubility (mole fraction) for CCOC(=O)Cc1c(C(=O)OCC)sc(N(CC(=O)OCC)CC(=O)OCC)c1C#N
Response: 0.0022

###

# CONDITION CONTEXT: in isopropanol, 293.15 K
MEASURE: solubility (mole fraction)
Lab note: jot the number down without any unit.

Prompt: State, in one line, measured solubility (mole fraction) of CCOC(=O)Cc1c(C(=O)OCC)sc(N(CC(=O)OCC)CC(=O)OCC)c1C#N
Response: 0.000592

###

# CONDITION CONTEXT: in cyclohexane, 298.15 K
MEASURE: solubility (mole fraction)
Enter the number alone.

Prompt: Please supply the value of reported solubility (mole fraction) for the item CCOC(=O)Cc1c(C(=O)OCC)sc(N(CC(=O)OCC)CC(=O)OCC)c1C#N
Response: 0.000142

###

# CONDITION CONTEXT: in cyclohexane, 288.15 K
MEASURE: solubility (mole fraction)
Keep the answer to the number alone.

Prompt: State its solubility (mole fraction) for this compound: CCOC(=O)Cc1c(C(=O)OCC)sc(N(CC(=O)OCC)CC(=O)OCC)c1C#N
Response: 7.21e-05

###

# CONDITION CONTEXT: in acetonitrile, 318.15 K
MEASURE: solubility (mole fraction)
Output: the number by itself.

Prompt: Recall and state the measured solubility (mole fraction) for CCOC(=O)Cc1c(C(=O)OCC)sc(N(CC(=O)OCC)CC(=O)OCC)c1C#N .
Response: 0.067
